# tgt: SauIRS (isoleucyl-tRNA synthetase from Staphylococcus aureus) (Staphylococcus aureus)
# Construct: made in house; host or cells: Escherichia coli M15
# Sequence (P41972 1-917): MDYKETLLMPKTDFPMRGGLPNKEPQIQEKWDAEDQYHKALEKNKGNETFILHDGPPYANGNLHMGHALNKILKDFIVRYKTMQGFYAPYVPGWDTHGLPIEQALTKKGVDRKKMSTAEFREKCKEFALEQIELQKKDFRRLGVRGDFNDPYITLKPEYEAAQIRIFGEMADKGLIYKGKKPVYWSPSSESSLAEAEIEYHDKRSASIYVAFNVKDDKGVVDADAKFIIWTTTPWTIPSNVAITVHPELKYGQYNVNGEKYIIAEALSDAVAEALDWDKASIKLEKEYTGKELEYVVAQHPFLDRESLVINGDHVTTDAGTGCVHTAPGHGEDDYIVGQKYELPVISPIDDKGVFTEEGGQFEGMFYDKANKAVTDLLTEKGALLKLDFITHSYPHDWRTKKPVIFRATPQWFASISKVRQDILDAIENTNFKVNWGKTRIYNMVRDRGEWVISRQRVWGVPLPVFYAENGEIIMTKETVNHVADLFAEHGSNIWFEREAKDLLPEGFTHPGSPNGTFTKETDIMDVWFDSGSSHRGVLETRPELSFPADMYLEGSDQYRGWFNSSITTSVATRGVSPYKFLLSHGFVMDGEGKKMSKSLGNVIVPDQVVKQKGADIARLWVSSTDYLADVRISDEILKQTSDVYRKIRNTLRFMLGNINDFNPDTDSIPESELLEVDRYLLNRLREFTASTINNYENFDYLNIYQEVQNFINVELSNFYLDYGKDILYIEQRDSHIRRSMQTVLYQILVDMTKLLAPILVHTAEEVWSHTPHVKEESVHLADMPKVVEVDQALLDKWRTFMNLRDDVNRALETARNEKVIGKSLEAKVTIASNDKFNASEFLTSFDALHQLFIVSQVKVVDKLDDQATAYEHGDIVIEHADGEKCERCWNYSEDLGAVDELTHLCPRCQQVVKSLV
# assay_procedure: aaRS aminoacylation assay (ATP consumption), SauIRS
# Format: biochemical
# condition_info: i.a. = inactive at a concentration below 50 uM
Counter-ions that a name gives are not always drawn.
readout_kind: IC50 SauIRS

1. CC(C)C[C@H](N)C(=O)NS(=O)(=O)c1cccc(-c2ncnc(N)n2)c1 [Compound 5.48] = i.a.
2. CSc1cc(-c2cccc(S(=O)(=O)NC(=O)[C@@H](N)CC(C)C)c2)nc(N)n1 [Compound 5.29] = i.a
3. CC(C)C[C@H](N)C(=O)NS(=O)(=O)c1cccc(-c2cc(N)nc(N)n2)c1 [Compound 5.45] = i.a.
4. Cc1cc(-c2cccc(S(=O)(=O)NC(=O)[C@@H](N)C3CC3)c2)nc(N)n1 [Compound 5.33] = i.a
5. CC(C)C[C@H](N)C(=O)NS(=O)(=O)c1ccc2ccccc2c1 [Compound 5.14] = i.a
6. CC(C)C[C@H](N)C(=O)NS(=O)(=O)c1c(C(C)C)cc(C(C)C)cc1C(C)C [Compound 5.12] = i.a
7. CC(C)C[C@H](N)C(=O)NS(=O)(=O)c1ccccc1-c1ccccc1 [Compound 5.3] = i.a
8. CC(C)C[C@H](N)C(=O)NS(=O)(=O)c1cccc(-c2ccnc(N)n2)c1 [Compound 5.37] = i.a.
9. CC(C)C[C@H](N)C(=O)NS(=O)(=O)c1cccc(-c2ccnc(N)c2)c1 [Compound 5.43] = i.a.
10. CC(C)C[C@H](N)C(=O)NS(=O)(=O)c1ccccc1F [Compound 5.6] = i.a
11. Cc1cc(-c2cccc(S(=O)(=O)NC(=O)[C@@H](N)CC3CC3)c2)nc(N)n1 [Compound 5.30] = i.a
12. CC(C)C[C@H](N)C(=O)NS(=O)(=O)c1cccc(-c2cc(N(C)C)nc(N)n2)c1 [Compound 5.28] = i.a
13. COc1ccc2cc(S(=O)(=O)NC(=O)[C@@H](N)CC(C)C)ccc2c1 [Compound 5.17] = i.a
14. CC(C)C[C@H](N)C(=O)NS(=O)(=O)c1ccc(Br)c2ccncc12 [Compound 5.22, trifluoroacetate] = i.a
15. CC(C)C[C@H](N)C(=O)NS(=O)(=O)c1cccc2c1OCCC2 [Compound 5.25] = i.a
16. CC(C)C[C@H](N)C(=O)NS(=O)(=O)c1ccccc1Cl [Compound 5.5] = i.a
17. Cc1cc(-c2cccc(S(=O)(=O)NC(=O)[C@@H](N)CC3CCC3)c2)nc(N)n1 [Compound 5.31] = i.a
